Helicity (%) values for the compounds below.
# ASSAY OVERVIEW: Circular dichroism (CD) α-helicity
# Type: physicochemical
# SETUP CONDITIONS: Table 2; CD of free peptide, 25 °C, 1 mM Hepes pH 7.4, 5% methanol
Bridge positions count the residues as written; N and C are the ends. Square brackets hold non-standard residues; d marks the D form. Peptide text beside a SMILES is read from it. Lys(N3) = [N-]=[N+]=NCCCC[C@H](N)C(=O)O; R8 = C=CCCCCCC[C@@](C)(N)C(=O)O; Cba = N[C@@H](CC1CCC1)C(=O)O; S5 = C=CCCC[C@](C)(N)C(=O)O; βAla = NCCC(=O)O
# number only, unit % dropped from output

Prompt: Return Helicity (%) (reported value) for this compound: CC(=O)N[C@@H](CCCCN=[N+]=[N-])C(=O)NCCC(=O)NCC(=O)N[C@H](C(=O)N[C@@H](Cc1ccccc1)C(=O)N[C@]1(C)CCCCCCC=CCCC[C@@](C)(C(=O)N[C@@H](CO)C(=O)N[C@@H](C)C(=O)N[C@@H](C)C(N)=O)NC(=O)[C@H](CC2CCC2)NC(=O)[C@H](CCC(N)=O)NC(=O)CNC(=O)[C@H](Cc2c[nH]c3ccccc23)NC(=O)[C@H](Cc2ccc(O)cc2)NC(=O)CNC1=O)[C@@H](C)O [L1G, E5G, A8G] (Ac-[Lys(N3)][βAla]GTF[R8]GYWGQ[Cba][S5]SAA-NH2; staple 6-13)
Response: 20.4

Prompt: For CC(=O)N[C@@H](CCCCN=[N+]=[N-])C(=O)NCCC(=O)N(C)[C@@H](CC(C)C)C(=O)N[C@H](C(=O)N[C@@H](Cc1ccccc1)C(=O)N[C@]1(C)CCCCCCC=CCCC[C@@](C)(C(=O)N[C@@H](CO)C(=O)N[C@@H](C)C(=O)N[C@@H](C)C(N)=O)NC(=O)[C@H](CC2CCC2)NC(=O)[C@H](CCC(N)=O)NC(=O)[C@H](C)NC(=O)[C@H](Cc2c[nH]c3ccccc23)NC(=O)[C@H](Cc2ccc(O)cc2)NC(=O)[C@H](CCC(=O)O)NC1=O)[C@@H](C)O [L1(N-methyl L-Leu)] , write its Helicity (%).
Response: 32.6

Prompt: Answer with reported Helicity (%) of CC(=O)N[C@@H](CCCCN=[N+]=[N-])C(=O)NCCC(=O)N[C@@H](CC(C)C)C(=O)N(C)[C@H](C(=O)N[C@@H](Cc1ccccc1)C(=O)N[C@]1(C)CCCCCCC=CCCC[C@@](C)(C(=O)N[C@@H](CO)C(=O)N[C@@H](C)C(=O)N[C@@H](C)C(N)=O)NC(=O)[C@H](CC2CCC2)NC(=O)[C@H](CCC(N)=O)NC(=O)[C@H](C)NC(=O)[C@H](Cc2c[nH]c3ccccc23)NC(=O)[C@H](Cc2ccc(O)cc2)NC(=O)[C@H](CCC(=O)O)NC1=O)[C@@H](C)O [T2(N-methyl L-Thr)]
Response: 38.2

More entries:
Prompt: Please indicate Helicity (%) recorded for CC(=O)N[C@@H](CCCCN=[N+]=[N-])C(=O)NCCC(=O)N[C@@H](CC(C)C)C(=O)N[C@H](C(=O)N[C@@H](Cc1ccccc1)C(=O)N[C@]1(C)CCCCCCC=CCCC[C@@](C)(C(=O)N[C@@H](CO)C(=O)N[C@@H](C)C(=O)N[C@@H](C)C(N)=O)NC(=O)[C@H](CC2CCC2)NC(=O)CNC(=O)[C@H](C)NC(=O)[C@H](Cc2c[nH]c3ccccc23)NC(=O)[C@H](Cc2ccc(O)cc2)NC(=O)[C@H](CCC(=O)O)NC1=O)[C@@H](C)O [Peptide Q9G]
Response: 38.8

Entry source: paper PMC6632053
